Target under test: human PAH with the R408W mutation (Homo sapiens, UniProt P00439, R408W)
Construct: expressed in transfected cells
Sequence (P00439 whole entry R408W): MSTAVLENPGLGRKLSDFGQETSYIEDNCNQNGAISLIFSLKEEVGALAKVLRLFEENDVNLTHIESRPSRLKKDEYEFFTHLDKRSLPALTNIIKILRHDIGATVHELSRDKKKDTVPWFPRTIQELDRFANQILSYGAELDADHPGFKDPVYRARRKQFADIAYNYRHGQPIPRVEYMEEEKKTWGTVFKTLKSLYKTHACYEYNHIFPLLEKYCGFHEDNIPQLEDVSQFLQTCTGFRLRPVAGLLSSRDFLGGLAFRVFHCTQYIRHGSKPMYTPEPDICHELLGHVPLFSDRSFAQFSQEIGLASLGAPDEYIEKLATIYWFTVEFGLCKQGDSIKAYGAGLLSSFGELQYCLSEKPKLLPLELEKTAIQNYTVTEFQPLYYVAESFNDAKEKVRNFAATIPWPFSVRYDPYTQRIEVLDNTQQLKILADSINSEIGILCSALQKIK
Protocol description: Cell Based Phenylalanine Flux Assay;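 further: after compound treatment, cells received sepiapterin plus isotope-labelled Phenylalanine for 4 hours, then labelled Tyrosine in the medium was quantified, 10-point 2-fold dilution series run in duplicate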
Conditions used: A375 cells expressing R408W PAH; 24 hrs with compound, then 20 µM sepiapterin and 800 µM 13C9,15N-Phenylalanine for 4 hours; 13C-Tyrosine by LC-MS; average where tested multiple times; read-out: AC50

Compound	AC50
Cn1ccc(-c2nnc(C(=O)N3CCc4[nH]cnc4C3c3cc4cc(C(F)(F)F)ccn4n3)o2)n1 (stereo not shown)	> 5 µM
O=C(c1nnc(C2CC(F)(F)C2)o1)N1CCc2[nH]cnc2C1c1cc2cccc(C(F)F)n2n1 (stereo not shown)	1 to 5 µM
Cc1c(C2c3nc[nH]c3CCN2C(=O)c2cnco2)nn2ccccc12 (stereo not shown)	1 to 5 µM
Cc1nnc(CCC(=O)N2CCc3[nH]cnc3C2c2cc3ccccn3n2)s1 (stereo not shown)	> 5 µM
O=C(C1CN(CC(F)(F)F)C1)N1CCc2[nH]cnc2C1c1cc2ccccn2n1 (stereo not shown)	> 5 µM
COc1cccn2nc([C@@H]3c4nc[nH]c4CCN3c3nnc(C4CC4)o3)cc12 (single isomer, unassigned)	1 to 5 µM
O=C(c1nnc(-c2ncccn2)o1)N1CCc2[nH]cnc2C1c1cc2ccccn2n1 (stereo not shown)	1 to 5 µM
O=C(C1CC1(F)F)N1CCc2[nH]cnc2C1c1cc2ccccn2n1 (stereo not shown)	1 to 5 µM
CC1(c2nnc(N3CCc4[nH]cnc4C3c3cc4c(C(F)F)cccn4n3)o2)CC1 (stereo not shown)	1 to 5 µM
FC(F)c1cccn2nc(C3c4nc[nH]c4CCN3c3nnc(-c4cccnn4)o3)cc12 (stereo not shown)	1 to 5 µM
Cn1cc(-c2nc(C3CC3)c(C(=O)N3CCc4[nH]cnc4C3c3cc4ccccn4n3)o2)cn1 (stereo not shown)	1 to 5 µM
Cn1nc(C(F)F)nc1C(=O)N1CCc2[nH]cnc2C1c1cc2cccc(C(F)(F)F)n2n1 (stereo not shown)	1 to 5 µM
COc1cccn2nc(C3c4nc[nH]c4CCN3C(=O)c3nnc(C)o3)cc12 (stereo not shown)	1 to 5 µM
O=C(c1cnn2cc(N3CCOCC3)ccc12)N1CCc2[nH]cnc2C1c1cc2c(F)cccn2n1 (stereo not shown)	1 to 5 µM
Fc1cccc(-c2nnc(N3CCc4[nH]cnc4C3c3cc4ccccn4n3)o2)n1 (stereo not shown)	1 to 5 µM
Cc1cccn2nc(C3c4nc[nH]c4CCN3C(=O)c3nnc(N4CCOCC4)o3)cc12 (stereo not shown)	1 to 5 µM
CC(C)(O)c1nnc(C(=O)N2CCc3[nH]cnc3C2c2cc3cccc(C(F)(F)F)n3n2)o1 (stereo not shown)	1 to 5 µM
Cc1cccn2nc(C3c4nc[nH]c4CCN3c3nnc(C(=O)N(C)C)o3)cc12 (stereo not shown)	1 to 5 µM
CC(C)(O)c1nnc(C(=O)N2CCc3[nH]cnc3C2c2cc3ccccn3n2)o1 (stereo not shown)	1 to 5 µM
O=C(c1cnco1)N1CCc2[nH]cnc2C1c1cc2cc(C(F)(F)F)ccn2n1 (stereo not shown)	> 5 µM
Cc1nnc(C(=O)N2CCc3[nH]cnc3C2c2cc3ccccn3n2)o1 (stereo not shown)	1 to 5 µM
Cc1cccn2nc([C@H]3c4nc[nH]c4CCN3C(=O)c3nnc(N4CCOCC4)o3)cc12 (single isomer, unassigned)	> 5 µM
O=C(c1nnc(-c2cnn(C(F)(F)F)c2)o1)N1CCc2[nH]cnc2C1c1cc2cccc(F)n2n1 (stereo not shown)	> 5 µM
O=C(c1nnc(N2CCOCC2)o1)N1CCc2[nH]cnc2C1c1cc2c(F)cccn2n1 (stereo not shown)	1 to 5 µM
FC(F)c1cccn2nc([C@H]3c4nc[nH]c4CCN3c3nc4ccccc4o3)cc12 (single isomer, unassigned)	> 5 µM
Cc1cccc2cc(C3c4nc[nH]c4CCN3C(=O)c3cnco3)nn12 (stereo not shown)	1 to 5 µM
Cc1nc(C(C)O)oc1C(=O)N1CCc2[nH]cnc2C1c1cc2cccc(C(F)(F)F)n2n1 (stereo not shown)	1 to 5 µM
Cc1cccn2nc(C3c4nc[nH]c4CCN3C(=O)c3ccn(-c4ccccn4)n3)cc12 (stereo not shown)	1 to 5 µM
O=C(c1nc2ccccc2s1)N1CCc2[nH]cnc2C1c1cc2c(C(F)(F)F)cccn2n1 (stereo not shown)	1 to 5 µM
Cc1nc(-c2ccccn2)oc1C(=O)N1CCc2[nH]cnc2[C@H]1c1cc2ccccn2n1 (single isomer, unassigned)	1 to 5 µM
O=C(c1ocnc1C1CC1)N1CCc2[nH]cnc2[C@@H]1c1cc2cccc(C(F)(F)F)n2n1 (single isomer, unassigned)	> 5 µM
Cc1cccc2cc([C@H]3c4nc[nH]c4CCN3C(=O)c3ncnn3C)nn12 (single isomer, unassigned)	> 5 µM
O=C(C1CC1)N1CCc2[nH]cnc2C1c1cc2ccccn2n1 (stereo not shown)	1 to 5 µM
O=C(c1cnco1)N1CCc2[nH]cnc2C1c1cc2ccccn2n1 (stereo not shown)	1 to 5 µM
Cc1cccc2cc([C@@H]3c4nc[nH]c4CCN3C(=O)c3cnc(C(C)(C)O)o3)nn12 (single isomer, unassigned)	1 to 5 µM
O=C(c1ncco1)N1CCc2[nH]cnc2C1c1cc2ccccn2n1 (stereo not shown)	1 to 5 µM
Cn1cc(-c2ncc(C(=O)N3CCc4[nH]cnc4C3c3cc4ccccn4n3)o2)cn1 (stereo not shown)	1 to 5 µM
